Tested on: SN12C renal
Assay: NCI tumour cell line growth inhibition, 48 h
Parameter GI50: see the listing below.
MEASURED_ATTRIBUTE: GI50

SUBSTANCE_SMILES | TEST_TARGET | VAL
Nc1nn(C(=O)Nc2ccc(Cc3ccccc3)cc2)c2ccc(Cl)cc12 | SN12C renal | 14.2 µM
Clc1ccc(N/N=C/c2ccccn2)nc1 | SN12C renal | 0.469 µM
Nc1cccc(-c2nc3sccn3c2-c2ccnc(NCCCNS(=O)(=O)c3ccc(C(F)(F)F)cc3)n2)c1 | SN12C renal | 4.36 µM
O=C(c1ccc(F)c(F)c1Nc1ccc(I)cc1F)N1CC(O)([C@H]2CCCCN2)C1 | SN12C renal | 3.96 µM
CCCCN(CCCC)c1cc(C(=O)CCCCCN)c2ccccc2n1 | SN12C renal | 1.63 µM
[Ce+3].[Cl-].[O-]/N=C(\c1ccccc1)c1ccccn1.[O-]/N=C(\c1ccccc1)c1ccccn1.[O-]/N=C(\c1ccccc1)c1ccccn1 | SN12C renal | 47.9 µM

---

System: NCI-H23 lung
Assay: NCI tumour cell line growth inhibition, 48 h; in the data active means GI50 below about 0.43 µM; inactive means the rest
Outcomes: active, inactive

MOLECULE | CATEGORY
Clc1cccc(Cn2cc(Cc3cn(Cc4cccc(Cl)c4)c4ccccc34)c3ccccc32)c1 | inactive
CNC(=O)c1cc(Oc2ccc3nc(NC(=O)c4cc(C(F)(F)F)cc(C(F)(F)F)c4)sc3c2)ccn1 | inactive
C[CH2][Sn]1([CH2]C)[O]C2C(O)OC(CO)C(O)C2[O]1 (stereo not given) | inactive
O=C1OCC2=C1C(c1ccccc1)c1cc3c(cc1N2CCO)CCC3 (stereo not given) | active
CCOc1ccc(/C=N/Nc2cc(C)nc3ccc(Cl)cc23)cc1 | inactive

---

Test system: M14 melanoma
Assay: NCI tumour cell line growth inhibition, 48 h
Rule: TGI under 30 µM gives rule not met, otherwise rule met.

COMPOUND | CATEGORY
CC1=C(C(=O)OCCc2ccc([N+](=O)[O-])cc2)C(c2ccccc2C(F)(F)F)C(C(=O)OC(C)C)=C(C)N1 (stereo unspecified) | rule not met
Cc1ccc(NC(=O)C2C(=O)C(=O)N(c3ccc(C)cc3)C2=O)cc1 (stereo unspecified) | rule met
O=S1Cc2ccccc2CS1 (stereo unspecified) | rule not met
O=c1oc2ccccc2c(-c2ccc(O)cc2)c1Oc1ccc(Cl)cc1 | rule met
Cc1ccc2c(=O)c(-c3nnsn3)c[nH]c2n1 | rule met
CN(C)c1cc2c(cc1Sc1nc3c(N)nccc3n1CCNCC(C)(C)C)OCO2 | rule not met
C=CC1(c2ccc(Cl)c(Cl)c2)OCCO1 | rule met
CCNC(=O)Nc1ccc(-c2nc3c(c(N4CCOC[C@@H]4C)n2)CCN(C2COC2)C3)cc1 | rule met
CCN(CC)CCC(=O)c1ccc(Oc2ccc(C)cc2)cc1 | rule met
Cn1c2c(c3c(=O)[nH]ncc31)CCc1ccccc1-2 | rule met
Clc1ccc(-c2nc(-c3c[nH]c4ncccc34)cs2)cc1 | rule met

---

System: NCI-H460 lung
Test: NCI tumour cell line growth inhibition, 48 h
MEASURED_ATTRIBUTE: TGI

MOLECULE | TEST_TARGET | MEASURED_ATTRIBUTE | VAL
Nc1ccc(-c2nc3cc(F)ccc3s2)cc1Br | NCI-H460 lung | TGI | > 46 µM
C=CC[Se]C(=O)c1ccccc1OC(C)=O | NCI-H460 lung | TGI | 1.84 µM
COC(=O)C1=C2C3=C(C(=O)c4ccccc4C3=O)N(Cc3ccccc3)C2(OC(C)=O)C=CC1=O (stereo not drawn) | NCI-H460 lung | TGI | > 100 µM
COC(=O)c1c(O)ccc2c1c1c(n2Cc2ccccn2)C(=O)c2ccccc2C1 | NCI-H460 lung | TGI | > 100 µM
[Ce+3].[Cl-].[O-]/N=C(\c1ccccc1)c1ccccn1.[O-]/N=C(\c1ccccc1)c1ccccn1.[O-]/N=C(\c1ccccc1)c1ccccn1 | NCI-H460 lung | TGI | > 100 µM
C[C@@]12C[C@@H](c3ccccc3O1)N1CCSC1=N2 | NCI-H460 lung | TGI | > 100 µM
CCC[CH2][Sn]([CH2]CCC)([O]C(=O)c1cc(OC)c(OC)c(OC)c1)[O]C(=O)c1cc(OC)c(OC)c(OC)c1 | NCI-H460 lung | TGI | 9.21 µM
C/C=C1/CN2CCC34C5=CC(=O)C(c6cc7c(cc6OC)N(C)C6=C(C(=O)OC)CC8(CC)CCCN9CCC67C98)=CC5=NC23CCC1C4C(=O)OC (stereo not drawn) | NCI-H460 lung | TGI | 30.1 µM
CCNC(=O)Nc1ccc(-c2nc3c(c(N4CCOC[C@@H]4C)n2)CCN(C2COC2)C3)cc1 | NCI-H460 lung | TGI | > 100 µM
CC(C)(C)OC(=O)N1C[C@H](CC(=O)OCc2ccccc2)C[C@H]1C(=O)OCC(Cl)(Cl)Cl | NCI-H460 lung | TGI | > 50 µM
Clc1ccc(-c2nc(-c3c[nH]c4ncccc34)cs2)cc1 | NCI-H460 lung | TGI | > 100 µM
Oc1ccc(Cl)cc1Cc1cc(Cl)cc(Cc2cc(Cl)ccc2O)c1O | NCI-H460 lung | TGI | 4.96 µM
Nc1ccccc1C#Cc1ccccc1C#Cc1ccccc1N | NCI-H460 lung | TGI | > 100 µM
CC(C)c1ccc2c(c1)[C@@]1(C)CC[C@H](C)C(C)(C)C1CC2 (stereo partly drawn) | NCI-H460 lung | TGI | 36.9 µM
COc1ccc(NC(=O)CSc2nnc(Cc3ccccc3)o2)cc1 | NCI-H460 lung | TGI | > 100 µM
CNC(=O)c1cc(Oc2ccc3nc(NC(=O)c4cc(C(F)(F)F)cc(C(F)(F)F)c4)sc3c2)ccn1 | NCI-H460 lung | TGI | 14.6 µM
Cc1cc2c(cc1C)C(=O)c1ncccc1C2=O | NCI-H460 lung | TGI | > 100 µM
O=C1C(CN(Cc2ccccc2)Cc2ccccc2)CCCC1CN(Cc1ccccc1)Cc1ccccc1 (stereo not drawn) | NCI-H460 lung | TGI | > 100 µM
